Recorded Ki by entry
target entity: HCV NS3/NS4a serine protease (Hepatitis C virus genotype 1b)
Construct: amino terminus of the NS3 protease domain (amino acids 3-181) with a tetrapeptide linker; made in house; host or cells: E. coli
assay explanation: Spectrophotometric assay for HCV protease inhibitory activity (chromogenic ester substrates)
Type: biochemical, hepatitis C virus (strain 1b)
conditions: Ki Rating, Table 2; single chain NS4A21-32-GSGS-NS3 3-181 protease, 30° C., pH 6.5
Where a SMILES comes first, the peptide text is derived from it. [ ]: non-standard residue; d: D form. The star is where a group is joined. Pro(3R,4S-CMe2) = CC1(C)[C@@H]2[C@@H](C(=O)O)NC[C@@H]21; Abu(4,4-F2) = N[C@@H](CC(F)F)C(=O)O; Phg = N[C@H](C(=O)O)c1ccccc1; Tle = CC(C)(C)[C@H](N)C(=O)O; Boc = CC(C)(C)OC(=O)*; βAla = NCCC(=O)O

A selection of reference data follows.
>  <molecule>
CC1(NC(=O)N[C@H](C(=O)N2C[C@H]3[C@@H]([C@H]2C(=O)NC(CC(F)F)C(=O)O)C3(C)C)C(C)(C)C)CCCCC1 (some centres unmarked) [Example 156]

>  <Ki>
> 500 nM

$$$$
>  <molecule>
CN(C)C(=O)[C@@H](NC(=O)CCNC(=O)[C@H](CC(F)F)NC(=O)[C@@H]1[C@@H]2[C@H](CN1C(=O)[C@@H](NC(=O)OC(C)(C)C)C(C)(C)C)C2(C)C)c1ccccc1 [Example 168] (Boc-[Tle][Pro(3R,4S-CMe2)][Abu(4,4-F2)][βAla][Phg]-NMe2)

>  <Ki>
> 500 nM

$$$$
>  <molecule>
CC1(NC(=O)N[C@H](C(=O)N2C[C@H]3[C@@H]([C@H]2C(=O)N[C@@H](CC(F)F)C(=O)NCCC(=O)OC(C)(C)C)C3(C)C)C(C)(C)C)CCCCC1 [Example 155]

>  <Ki>
> 500 nM

$$$$
>  <molecule>
CC(C)[C@H](NC(=O)N[C@H](C(=O)N1C[C@H]2[C@@H]([C@H]1C(=O)N[C@@H](CC(F)F)C(=O)NCCC(=O)O)C2(C)C)C(C)(C)C)C(=O)O [Example 160]

>  <Ki>
> 500 nM

$$$$

Recorded result, CN(C)C(=O)[C@@H](NC(=O)CNC(=O)[C@H](CC(F)F)NC(=O)[C@@H]1[C@@H]2[C@H](CN1C(=O)[C@@H](NC(=O)OC(C)(C)C)C(C)(C)C)C2(C)C)c1ccccc1 [Example 171] (Boc-[Tle][Pro(3R,4S-CMe2)][Abu(4,4-F2)]G[Phg]-NMe2) , Ki: > 500 nM

----------
target entity: HCV NS3/NS4a serine protease (Hepatitis C virus genotype 1b, UniProt P26663)
Construct: amino terminus of the NS3 protease domain (amino acids 3-181) with a tetrapeptide linker; made in house; host or cells: E. coli
Sequence (P26663 1013-1207, looked up, natural form): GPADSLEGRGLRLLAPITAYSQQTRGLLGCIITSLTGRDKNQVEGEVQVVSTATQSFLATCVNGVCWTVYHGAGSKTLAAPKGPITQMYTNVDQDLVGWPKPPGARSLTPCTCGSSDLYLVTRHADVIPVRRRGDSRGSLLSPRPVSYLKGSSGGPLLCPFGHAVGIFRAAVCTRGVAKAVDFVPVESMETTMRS
assay explanation: Spectrophotometric assay for HCV protease inhibitory activity (chromogenic ester substrates)
Type: biochemical, hepatitis C virus (strain 1b)
conditions: Ki, Table 3; rating; single chain NS4A21-32-GSGS-NS3 3-181 protease, 30° C., pH 6.5
pKi: −log10 of the molar value.
experimental endpoint: pKi

>  <compound string>
COc1ccc(OC)c(CCNC(=O)[C@H](CC(F)F)NC(=O)[C@@H]2[C@@H]3[C@H](CN2C(=O)[C@@H](NC(=O)N[C@H](CN(C)S(C)(=O)=O)C(C)(C)C)C(C)(C)C)C3(C)C)c1

>  <pKi>
6.30 to 7.00

$$$$
>  <compound string>
CN(C[C@@H](NC(=O)N[C@H](C(=O)N1C[C@H]2[C@@H]([C@H]1C(=O)N[C@@H](CC(F)F)C(=O)NCCc1cccnc1)C2(C)C)C(C)(C)C)C(C)(C)C)S(C)(=O)=O

>  <pKi>
> 7.00

$$$$
>  <compound string>
CN(C[C@@H](NC(=O)N[C@H](C(=O)N1C[C@H]2[C@@H]([C@H]1C(=O)N[C@@H](CC(F)F)C(=O)N[C@@H]1c3ccccc3C[C@@H]1O)C2(C)C)C(C)(C)C)C(C)(C)C)S(C)(=O)=O

>  <pKi>
< 6.30

$$$$
>  <compound string>
CN(C[C@@H](NC(=O)N[C@H](C(=O)N1C[C@H]2[C@@H]([C@H]1C(=O)N[C@@H](CC(F)F)C(=O)NCCC#N)C2(C)C)C(C)(C)C)C(C)(C)C)S(C)(=O)=O

>  <pKi>
< 6.30

$$$$

Now take the following compound into account.
# compound CN(C[C@@H](NC(=O)N[C@H](C(=O)N1C[C@H]2[C@@H]([C@H]1C(=O)N[C@@H](CC(F)F)C(=O)N[C@H]1C[C@@H]1c1ccccc1)C2(C)C)C(C)(C)C)C(C)(C)C)S(C)(=O)=O ; its pKi = < 6.30

----------
target entity: HCV NS3/NS4a serine protease (Hepatitis C virus genotype 1b)
Construct: amino terminus of the NS3 protease domain (amino acids 3-181) with a tetrapeptide linker; made in house; host or cells: E. coli
assay explanation: Spectrophotometric assay for HCV protease inhibitory activity (chromogenic ester substrates)
Assay type: biochemical, hepatitis C virus (strain 1b)
conditions: Ki, Table 3; rating; single chain NS4A21-32-GSGS-NS3 3-181 protease, 30° C., pH 6.5
pKi: −log10 of the molar value.
Quick list: pKi per entry.

Sample answers from the record:
>  <compound>
CN(C[C@@H](NC(=O)N[C@H](C(=O)N1C[C@H]2[C@@H]([C@H]1C(=O)N[C@@H](CC(F)F)C(=O)NCCOc1ccccc1)C2(C)C)C(C)(C)C)C(C)(C)C)S(C)(=O)=O [Example 221]

>  <assay value>
< 6.30

$$$$
>  <compound>
C[C@H](NC(=O)[C@H](CC(F)F)NC(=O)[C@@H]1[C@@H]2[C@H](CN1C(=O)[C@@H](NC(=O)N[C@H](CN(C)S(C)(=O)=O)C(C)(C)C)C(C)(C)C)C2(C)C)[C@H](O)c1ccccc1 [Example 248]

>  <assay value>
> 7.00

$$$$
>  <compound>
CCOc1ccc(CCNC(=O)[C@H](CC(F)F)NC(=O)[C@@H]2[C@@H]3[C@H](CN2C(=O)[C@@H](NC(=O)N[C@H](CN(C)S(C)(=O)=O)C(C)(C)C)C(C)(C)C)C3(C)C)cc1 [Example 274]

>  <assay value>
> 7.00

$$$$
>  <compound>
CCCOc1ccc(CCNC(=O)[C@H](CC(F)F)NC(=O)[C@@H]2[C@@H]3[C@H](CN2C(=O)[C@@H](NC(=O)N[C@H](CN(C)S(C)(=O)=O)C(C)(C)C)C(C)(C)C)C3(C)C)cc1Cl [Example 299]

>  <assay value>
> 7.00

$$$$

Let's switch to this compound now.
The compound listed as CN(C[C@@H](NC(=O)N[C@H](C(=O)N1C[C@H]2[C@@H]([C@H]1C(=O)N[C@@H](CC(F)F)C(=O)NCCc1ccc(C(C)(C)C)cc1)C2(C)C)C(C)(C)C)C(C)(C)C)S(C)(=O)=O [Example 276] has a reported pKi of > 7.00

----------
Reported pKi by item:
target entity: HCV NS3/NS4a serine protease (Hepatitis C virus genotype 1b)
Construct: amino terminus of the NS3 protease domain (amino acids 3-181) with a tetrapeptide linker; made in house; host or cells: E. coli
assay explanation: Spectrophotometric assay for HCV protease inhibitory activity (chromogenic ester substrates)
Assay type: biochemical, hepatitis C virus (strain 1b)
conditions: Ki, Table 3; rating; single chain NS4A21-32-GSGS-NS3 3-181 protease, 30° C., pH 6.5
pKi: −log10 of the molar value.

Worked cases, pKi given:
>  <compound>
Cc1ccc(CCNC(=O)[C@H](CC(F)F)NC(=O)[C@@H]2[C@@H]3[C@H](CN2C(=O)[C@@H](NC(=O)N[C@H](CN(C)S(C)(=O)=O)C(C)(C)C)C(C)(C)C)C3(C)C)c(C)c1

>  <target entity>
HCV NS3/NS4a serine protease (Hepatitis C virus genotype 1b)

>  <pKi>
> 7.00

$$$$
>  <compound>
COc1ccccc1CCNC(=O)[C@H](CC(F)F)NC(=O)[C@@H]1[C@@H]2[C@H](CN1C(=O)[C@@H](NC(=O)N[C@H](CN(C)S(C)(=O)=O)C(C)(C)C)C(C)(C)C)C2(C)C

>  <target entity>
HCV NS3/NS4a serine protease (Hepatitis C virus genotype 1b)

>  <pKi>
> 7.00

$$$$
>  <compound>
Cc1ccc(CCNC(=O)[C@H](CC(F)F)NC(=O)[C@@H]2[C@@H]3[C@H](CN2C(=O)[C@@H](NC(=O)N[C@H](CN(C)S(C)(=O)=O)C(C)(C)C)C(C)(C)C)C3(C)C)cc1C

>  <target entity>
HCV NS3/NS4a serine protease (Hepatitis C virus genotype 1b)

>  <pKi>
> 7.00

$$$$
>  <compound>
CN(C[C@@H](NC(=O)N[C@H](C(=O)N1C[C@H]2[C@@H]([C@H]1C(=O)N[C@@H](CC(F)F)C(=O)NCC(O)c1ccccc1)C2(C)C)C(C)(C)C)C(C)(C)C)S(C)(=O)=O (stereo partly shown)

>  <target entity>
HCV NS3/NS4a serine protease (Hepatitis C virus genotype 1b)

>  <pKi>
6.30 to 7.00

$$$$

Note to self: pKi of CN(C[C@@H](NC(=O)N[C@H](C(=O)N1C[C@H]2[C@@H]([C@H]1C(=O)N[C@@H](CC(F)F)C(=O)NCCc1c(Cl)cccc1Cl)C2(C)C)C(C)(C)C)C(C)(C)C)S(C)(=O)=O with HCV NS3/NS4a serine protease (Hepatitis C virus genotype 1b) was > 7.00

The compound CN(CCc1ccccc1)C(=O)[C@H](CC(F)F)NC(=O)[C@@H]1[C@@H]2[C@H](CN1C(=O)[C@@H](NC(=O)N[C@H](CN(C)S(C)(=O)=O)C(C)(C)C)C(C)(C)C)C2(C)C , tested on HCV NS3/NS4a serine protease (Hepatitis C virus genotype 1b), showed pKi of < 6.30

Note to self: pKi of CN(C[C@@H](NC(=O)N[C@H](C(=O)N1C[C@H]2[C@@H]([C@H]1C(=O)N[C@@H](CC(F)F)C(=O)NCCN1CCOCC1)C2(C)C)C(C)(C)C)C(C)(C)C)S(C)(=O)=O with HCV NS3/NS4a serine protease (Hepatitis C virus genotype 1b) was < 6.30

Reported pKi (HCV NS3/NS4a serine protease (Hepatitis C virus genotype 1b)) for entry CN(C[C@@H](NC(=O)N[C@H](C(=O)N1C[C@H]2[C@@H]([C@H]1C(=O)N[C@@H](CC(F)F)C(=O)NCC(C)(C)C)C2(C)C)C(C)(C)C)C(C)(C)C)S(C)(=O)=O is < 6.30

Param item: COc1ccc(CCNC(=O)[C@H](CC(F)F)NC(=O)[C@@H]2[C@@H]3[C@H](CN2C(=O)[C@@H](NC(=O)N[C@H](CN(C)S(C)(=O)=O)C(C)(C)C)C(C)(C)C)C3(C)C)cc1Br ; param system: HCV NS3/NS4a serine protease (Hepatitis C virus genotype 1b); output pKi: > 7.00

// returns pKi for CN(C[C@@H](NC(=O)N[C@H](C(=O)N1C[C@H]2[C@@H]([C@H]1C(=O)N[C@@H](CC(F)F)C(=O)NCCc1ccc(Cl)cc1Cl)C2(C)C)C(C)(C)C)C(C)(C)C)S(C)(=O)=O with HCV NS3/NS4a serine protease (Hepatitis C virus genotype 1b); value = > 7.00
